Each recorded value in this set is attributed to patent US20240360228A1.

target: T1, human CCR8 (human, UniProt P51685 1-355); assay: flow blocking, PBMC CCR8+CD3+; competitor PE-AB7
T1 construct: Native CCR8 on human PBMC (CCR8+ CD3+ or CCR8+ CD4+ lymphocytes); also called chemokine (C-C motif) receptor 8
T1 sequence (P51685 whole entry): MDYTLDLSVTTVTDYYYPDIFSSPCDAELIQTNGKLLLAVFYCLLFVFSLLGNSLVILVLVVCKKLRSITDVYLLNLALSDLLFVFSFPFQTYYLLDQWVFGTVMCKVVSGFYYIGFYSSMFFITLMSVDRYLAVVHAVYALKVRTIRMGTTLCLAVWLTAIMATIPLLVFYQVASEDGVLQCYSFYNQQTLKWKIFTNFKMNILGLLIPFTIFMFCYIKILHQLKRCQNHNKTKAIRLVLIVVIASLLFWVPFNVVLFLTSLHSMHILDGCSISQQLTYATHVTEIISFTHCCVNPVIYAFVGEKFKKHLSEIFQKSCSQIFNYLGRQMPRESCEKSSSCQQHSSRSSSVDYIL
Reported MFI values for the following binders.

Use these answered entries as a reference point.
INSERT INTO measurements (binder, test_value) VALUES
  ('AB10 (antibody, V domains shown, Hybridoma monoclonal; also called antibody 10; clone 10) VH: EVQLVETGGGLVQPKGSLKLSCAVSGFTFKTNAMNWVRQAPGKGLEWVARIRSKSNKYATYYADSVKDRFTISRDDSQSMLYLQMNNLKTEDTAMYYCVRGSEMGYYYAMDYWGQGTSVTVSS VL: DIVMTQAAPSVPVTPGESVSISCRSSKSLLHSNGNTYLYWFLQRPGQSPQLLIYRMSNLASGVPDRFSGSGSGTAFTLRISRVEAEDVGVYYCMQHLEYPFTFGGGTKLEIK', 559),
  ('AB6 (antibody, V domains shown, Hybridoma monoclonal; Same VH/VL entries as AB5; also called antibody 6; clone 6) VH: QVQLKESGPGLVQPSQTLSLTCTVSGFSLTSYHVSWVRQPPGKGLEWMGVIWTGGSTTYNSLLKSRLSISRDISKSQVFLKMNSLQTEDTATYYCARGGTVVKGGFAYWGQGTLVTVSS VL: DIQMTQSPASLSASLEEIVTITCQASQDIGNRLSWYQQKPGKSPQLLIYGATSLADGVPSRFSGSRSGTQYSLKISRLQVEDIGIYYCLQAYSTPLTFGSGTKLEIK', 786),
  ('AB7 (antibody, V domains shown, Hybridoma monoclonal; also called antibody 7; clone 7) VH: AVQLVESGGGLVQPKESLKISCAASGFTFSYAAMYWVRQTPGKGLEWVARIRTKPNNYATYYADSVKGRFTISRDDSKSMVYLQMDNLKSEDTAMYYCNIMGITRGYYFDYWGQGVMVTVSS VL: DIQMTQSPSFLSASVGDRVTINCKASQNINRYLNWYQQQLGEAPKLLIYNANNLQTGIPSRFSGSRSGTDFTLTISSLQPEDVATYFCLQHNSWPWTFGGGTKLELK', 616);

Respond only with MFI recorded for AB8 (antibody, V domains shown, Hybridoma monoclonal; also called antibody 8; clone 8) VH: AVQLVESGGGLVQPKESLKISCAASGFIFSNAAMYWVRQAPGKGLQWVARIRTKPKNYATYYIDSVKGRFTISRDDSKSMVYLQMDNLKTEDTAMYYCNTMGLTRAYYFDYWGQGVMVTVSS VL: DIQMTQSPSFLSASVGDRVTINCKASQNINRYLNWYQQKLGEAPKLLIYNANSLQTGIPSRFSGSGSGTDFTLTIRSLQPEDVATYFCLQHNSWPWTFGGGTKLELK 863

Respond only with MFI recorded for AB11 (antibody, V domains shown, Hybridoma monoclonal; also called antibody 11; clone 11) VH: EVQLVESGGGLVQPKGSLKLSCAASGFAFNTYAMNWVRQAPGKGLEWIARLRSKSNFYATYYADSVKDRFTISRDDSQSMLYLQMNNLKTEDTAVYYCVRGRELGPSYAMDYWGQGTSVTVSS VL: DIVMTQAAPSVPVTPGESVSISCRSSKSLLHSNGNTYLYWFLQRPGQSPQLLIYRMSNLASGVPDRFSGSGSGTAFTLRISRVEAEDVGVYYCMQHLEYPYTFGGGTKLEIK 1020

Respond only with MFI recorded for AB5 (antibody, V domains shown, Hybridoma monoclonal; Same VH/VL entries as AB6; also called antibody 5; clone 5) VH: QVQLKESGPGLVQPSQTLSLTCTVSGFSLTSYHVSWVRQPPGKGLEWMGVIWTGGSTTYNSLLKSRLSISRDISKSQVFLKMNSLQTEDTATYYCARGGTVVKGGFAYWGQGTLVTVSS VL: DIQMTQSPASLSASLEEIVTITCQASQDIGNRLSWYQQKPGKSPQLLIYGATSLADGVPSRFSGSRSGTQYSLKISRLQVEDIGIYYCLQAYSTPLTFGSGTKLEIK 1210

Respond only with MFI recorded for AB13 (antibody, V domains shown, Hybridoma monoclonal; also called antibody 13; clone 13) VH: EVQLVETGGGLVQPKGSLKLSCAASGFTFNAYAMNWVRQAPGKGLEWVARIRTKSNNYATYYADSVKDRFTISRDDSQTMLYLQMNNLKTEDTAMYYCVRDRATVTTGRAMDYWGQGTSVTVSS VL: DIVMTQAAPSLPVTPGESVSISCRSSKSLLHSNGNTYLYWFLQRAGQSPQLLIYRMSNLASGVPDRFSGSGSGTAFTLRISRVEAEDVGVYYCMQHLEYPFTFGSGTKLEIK 630
